- Tested on: F508del CFTR (Homo sapiens, UniProt P13569, DEL508-508)
- Construct: expressed in transfected cells; host or cells: HEK293 Griptite cells stably expressing F508del CFTR, transiently transfected with halide-sensitive eYFP
- Sequence (P13569 with tags, fused parts or gaps DEL508-508): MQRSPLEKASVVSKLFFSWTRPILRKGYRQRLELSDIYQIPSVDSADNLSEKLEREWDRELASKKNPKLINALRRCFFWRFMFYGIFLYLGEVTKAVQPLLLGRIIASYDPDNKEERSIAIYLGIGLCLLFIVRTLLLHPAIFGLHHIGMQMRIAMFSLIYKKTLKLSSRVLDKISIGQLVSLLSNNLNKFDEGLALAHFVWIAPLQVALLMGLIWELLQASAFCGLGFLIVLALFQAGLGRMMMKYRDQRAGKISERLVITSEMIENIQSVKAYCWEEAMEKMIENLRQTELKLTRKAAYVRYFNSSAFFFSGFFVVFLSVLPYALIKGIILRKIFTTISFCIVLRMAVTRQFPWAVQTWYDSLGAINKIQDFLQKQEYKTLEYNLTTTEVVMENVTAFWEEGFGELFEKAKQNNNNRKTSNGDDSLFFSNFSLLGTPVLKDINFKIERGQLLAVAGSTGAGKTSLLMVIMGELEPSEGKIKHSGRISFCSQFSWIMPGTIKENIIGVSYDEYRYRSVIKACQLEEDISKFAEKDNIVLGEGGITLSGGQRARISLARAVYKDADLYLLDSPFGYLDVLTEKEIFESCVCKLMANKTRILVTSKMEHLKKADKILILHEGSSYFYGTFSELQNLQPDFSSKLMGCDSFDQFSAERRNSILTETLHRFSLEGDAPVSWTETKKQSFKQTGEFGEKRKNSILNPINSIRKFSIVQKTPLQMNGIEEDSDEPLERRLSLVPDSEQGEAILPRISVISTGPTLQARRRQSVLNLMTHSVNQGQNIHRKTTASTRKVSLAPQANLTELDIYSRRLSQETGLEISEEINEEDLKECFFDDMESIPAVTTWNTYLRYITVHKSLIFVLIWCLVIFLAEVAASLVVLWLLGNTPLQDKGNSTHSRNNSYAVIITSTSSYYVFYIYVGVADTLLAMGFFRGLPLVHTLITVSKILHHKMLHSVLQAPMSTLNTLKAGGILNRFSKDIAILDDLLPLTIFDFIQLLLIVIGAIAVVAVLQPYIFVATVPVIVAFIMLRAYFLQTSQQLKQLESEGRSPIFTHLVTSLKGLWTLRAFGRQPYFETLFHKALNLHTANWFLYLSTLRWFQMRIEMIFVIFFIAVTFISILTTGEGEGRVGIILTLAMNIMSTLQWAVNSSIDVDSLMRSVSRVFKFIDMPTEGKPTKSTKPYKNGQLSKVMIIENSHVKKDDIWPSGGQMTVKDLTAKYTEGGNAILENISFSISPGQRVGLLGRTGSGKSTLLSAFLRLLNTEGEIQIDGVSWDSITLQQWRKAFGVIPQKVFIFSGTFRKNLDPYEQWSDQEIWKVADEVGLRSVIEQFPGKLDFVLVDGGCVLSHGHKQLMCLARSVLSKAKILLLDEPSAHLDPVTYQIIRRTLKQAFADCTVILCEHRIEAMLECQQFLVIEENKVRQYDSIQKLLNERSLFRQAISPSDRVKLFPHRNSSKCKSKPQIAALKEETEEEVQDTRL
- Experiment: YFP fluorescence quenching functional assay (iodide influx), HEK293 cells with F508del CFTR and halide sensitive YFP
- Format: cell-based
- Test conditions: HEK293; 10 μM, 24 h; nc = 100% pc = 69.2; read-out: % YFP quench
Structures can show the parent of a compound that is named as a salt.
// assign True if remaining activity at 10 µM falls strictly below 90%, else False (ties count as False)

Example entries and their recorded answers appear below.
Record C[C@]12CC[C@@H]3c4ccc(OS(=O)(=O)O)cc4CC[C@H]3[C@@H]1CCC2=O [Estropipate] : is its remaining activity at 10 µM strictly below 90%?
True

Record CC(C)(C)NCC(O)c1ccc(O)c(CO)c1 (stereo not shown) : is its remaining activity at 10 µM strictly below 90%?
False

Record C[C@@H]1CCC[C@H](C)N1NC(=O)c1ccc(Cl)c(S(N)(=O)=O)c1 [Clopamide] : is its remaining activity at 10 µM strictly below 90%?
True

Record O=C(OCC(O)CO)c1ccccc1Nc1ccnc2cc(Cl)ccc12 (stereo not shown) [Glafenine hydrochloride] : is its remaining activity at 10 µM strictly below 90%?
True

Record COc1cc(C)nc(-n2nc(C)cc2OC)n1 [Epirizole] : is its remaining activity at 10 µM strictly below 90%?
False

***
Record CCN(CC)C(=O)N1CCN(C)CC1 [Diethylcarbamazine citrate] : is its remaining activity at 10 µM strictly below 90%?
False

Record `CC[C@H]1OC(=O)[C@H](C)[C@@H](O[C@H]2C[C@@](C)(OC)[C@@H](O)[C@H](C)O2)[C@H](C)[C@@H](O[C@@H]2O[C@H](C)C[C@H](N(C)C)[C@H]2O)[C@](C)(O)C[C@@H](C)/C(=N\OCOCCOC)[C@H](C)[C@@H](O)[C@]1(C)O` : is its remaining activity at 10 µM strictly below 90%?
False

Record Cc1scc2c1N(C(=O)CN1CCN(C)CC1)c1ccccc1NC2=O [Telenzepine dihydrochloride] : is its remaining activity at 10 µM strictly below 90%?
True

Record c1ccc2c(c1)OCC(C1=NCCN1)O2 (stereo not shown) [Idazoxan hydrochloride] : is its remaining activity at 10 µM strictly below 90%?
False

Record `CCOC(=O)n1ccn(C)c1=S` : is its remaining activity at 10 µM strictly below 90%?
False

Record CC(C(=O)O)c1ccc(-c2ccccc2)c(F)c1 (stereo not shown) : is its remaining activity at 10 µM strictly below 90%?
False

====

- Tested on: ΔF508-CFTR (Homo sapiens, UniProt P13569, DEL508-508)
- Sequence (P13569 with tags, fused parts or gaps DEL508-508): as above
- Assay type: cell-based
- Design: which was then ligated into full length pNUT-CFTR linearized using Hpa1 and Pml1; expressed in transfected cells
- Test conditions: Prestwick library, initial corrector assay; standard deviations above untreated controls
Where a name gives a salt, the structure may show the parent alone.
I'd appreciate it if you could supply hit in screen (score) values for the items below.
Numbers only.

Example entries and their recorded answers appear below.
Sure, the documented hit in screen (score) for `CC(C)(C(=O)c1cccnc1)c1cccnc1` is 1.4

Sure, the documented hit in screen (score) for CCCCOc1ccc(OCCCN2CCOCC2)cc1 [Pramoxine hydrochloride] is 1.2

Sure, the documented hit in screen (score) for COc1cc(C)nc(-n2nc(C)cc2OC)n1 [Epirizole] is 1.3

Sure, the documented hit in screen (score) for Cl.OC(CCN1CCCC1)(c1ccccc1)C1CCCCC1 (centres unmarked) [Procycildine hydrochloride] is 1.1

Next compound, please.
Sure, the documented hit in screen (score) for C[N+](C)(C)CCCCCC[N+](C)(C)C.O.O.[Br-].[Br-] [Hexamethonium dibromide dihydrate] is 1.1

====

- Tested on: ΔF508-CFTR (Homo sapiens, UniProt P13569, DEL508-508)
- Type: cell-based
- Parameters: which was then ligated into full length pNUT-CFTR linearized using Hpa1 and Pml1; expressed in transfected cells
- Test conditions: Prestwick library, initial corrector assay; standard deviations above untreated controls
Where a name gives a salt, the structure may show the parent alone.
I'd appreciate it if you could supply hit in screen (score) values for the items below.
Answers are plain numbers.

Example entries and their recorded answers appear below.
The reported ΔF508-CFTR (Homo sapiens, UniProt P13569, DEL508-508) hit in screen (score) of Clc1ccc(Cn2c(CN3CCCC3)nc3ccccc32)cc1 [Clemizole hydrochloride] is 1.5

The reported ΔF508-CFTR (Homo sapiens, UniProt P13569, DEL508-508) hit in screen (score) of CC(C(=O)O)c1ccc(-c2ccccc2)c(F)c1 (stereo not drawn) [Flubiprofen] is 1.0

The reported ΔF508-CFTR (Homo sapiens, UniProt P13569, DEL508-508) hit in screen (score) of C[C@@H]1CCC[C@H](C)N1NC(=O)c1ccc(Cl)c(S(N)(=O)=O)c1 [Clopamide] is 1.1

The reported ΔF508-CFTR (Homo sapiens, UniProt P13569, DEL508-508) hit in screen (score) of Cc1oncc1C(=O)Nc1ccc(C(F)(F)F)cc1 [Leflunomide] is 1.0

The reported ΔF508-CFTR (Homo sapiens, UniProt P13569, DEL508-508) hit in screen (score) of CCn1cc(C(=O)O)c(=O)c2cc(F)c(N3CCNCC3)nc21 [Enoxacin] is 1.0

The reported ΔF508-CFTR (Homo sapiens, UniProt P13569, DEL508-508) hit in screen (score) of Cc1cc(N)c2ccccc2[n+]1CCCCCCCCCC[n+]1c(C)cc(N)c2ccccc21.[Cl-].[Cl-] [Dequalinlum dichloride] is 2.2

The reported ΔF508-CFTR (Homo sapiens, UniProt P13569, DEL508-508) hit in screen (score) of CCN(CC)C(=O)N1CCN(C)CC1 [Diethylcarbamazine citrate] is 1.2

The reported ΔF508-CFTR (Homo sapiens, UniProt P13569, DEL508-508) hit in screen (score) of CCN(CC)CC#CCOC(=O)C(O)(c1ccccc1)C1CCCCC1 (stereo not drawn) [Oxybutynin chloride] is 1.2

Next compound, please.
The reported ΔF508-CFTR (Homo sapiens, UniProt P13569, DEL508-508) hit in screen (score) of O=C1CCC(N2C(=O)c3ccccc3C2=O)C(=O)N1 (stereo not drawn) [Thalidomide] is 2.0

====

I'd appreciate it if you could supply % YFP quench values for the items below.
- Tested on: F508del CFTR (Homo sapiens, UniProt P13569, DEL508-508)
- Construct: expressed in transfected cells; host or cells: HEK293 Griptite cells stably expressing F508del CFTR, transiently transfected with halide-sensitive eYFP
- Experiment: YFP fluorescence quenching functional assay (iodide influx), HEK293 cells with F508del CFTR and halide sensitive YFP
- Format: cell-based
- Test conditions: 10 μM, 24 h; nc = 100% pc = 69.2
Numbers only, in %.

Example entries and their recorded answers appear below.
The reported F508del CFTR (Homo sapiens, UniProt P13569, DEL508-508) % YFP quench of `NC(=O)N1c2ccccc2C=Cc2ccccc21` is 86

The reported F508del CFTR (Homo sapiens, UniProt P13569, DEL508-508) % YFP quench of OCC(O)CN1CCN(c2ccccc2)CC1 (racemic) [Dropropizine (R, S)] is 92

The reported F508del CFTR (Homo sapiens, UniProt P13569, DEL508-508) % YFP quench of `O=C(O)[C@H](O)[C@@H](O)[C@H](O[C@@H]1O[C@H](CO)[C@H](O)[C@H](O)[C@H]1O)[C@H](O)CO` is 78

The reported F508del CFTR (Homo sapiens, UniProt P13569, DEL508-508) % YFP quench of Cl.OC(CCN1CCCC1)(c1ccccc1)C1CCCCC1 (stereo not shown) [Procycildine hydrochloride] is 92

The reported F508del CFTR (Homo sapiens, UniProt P13569, DEL508-508) % YFP quench of `c1ccc(CNc2ncnc3[nH]cnc23)cc1` is 89

The reported F508del CFTR (Homo sapiens, UniProt P13569, DEL508-508) % YFP quench of Cc1cc(N)c2ccccc2[n+]1CCCCCCCCCC[n+]1c(C)cc(N)c2ccccc21.[Cl-].[Cl-] [Dequalinlum dichloride] is 102

Please give % YFP quench for each item listed below.
1. O=C([O-])c1ccccc1-c1c2cc(Br)c(=O)cc-2oc2[c]([Hg+])c([O-])c(Br)cc12.[Na+].[Na+].[OH-]
2. CN(C)CCOC(=O)COc1ccc(Cl)cc1.Cl [Meciofenoxate hydrochloride]
3. CN(Cc1cnc2nc(N)nc(N)c2n1)c1ccc(C(=O)N[C@@H](CCC(=O)O)C(=O)O)cc1 (racemic) [Amethopterin (R, S)]
4. CC(C)Cc1ccc([C@H](C)C(=O)O)cc1 [S-(+)-Ibuorofen]
5. N[C@H]1CONC1=O [(S)-(−)-Cycloserine]
6. C[N+](C)(C)CCCCCC[N+](C)(C)C.O.O.[Br-].[Br-] [Hexamethonium dibromide dihydrate]
7. C[C@]12CCC(=O)C=C1CC[C@@H]1[C@@H]2[C@@H](O)C[C@@]2(C)[C@H]1CC[C@]2(O)C(=O)CO [Hydrocortisone base]

107
877
109
91
98
98
94

Origin of the recorded values: patent US20110009351A1
